Numbers sourced from patent US20240173432A1.

- Test system: CAG foci in primary DM1 patient myoblasts
- Run Description: Single-cut screening: CAG foci staining
- Assay type: cell-based, human
- Settings: single sgRNA, DNA-PKi treated
Endpoint Label: % of CAG foci positive nuclei (DNA-PKi) (%)
Answers are plain numbers, in %.

Some entries whose results are on file:
Sequence: CGGAGCGGTTGTGAACTGGCAG (guide RNA; chemistry not fully specified) [SluU20]
% of CAG foci positive nuclei (DNA-PKi) (%): 1.43
--
Sequence: GCCGAAGCGGGCGGAGCCGGCT (guide RNA; chemistry not fully specified) [SluD57]
% of CAG foci positive nuclei (DNA-PKi) (%): 1.02
--
Sequence: GGGGGTGCGTGGAGGATGGAAC (guide RNA; chemistry not fully specified) [SluD20]
% of CAG foci positive nuclei (DNA-PKi) (%): 1.1

Would you kindly look at the next entry?
Find the measured % of CAG foci positive nuclei (DNA-PKi): item GCCCCGGAGTCGAAGACAGTTC (guide RNA; chemistry not fully specified) [SluU05] , target or system CAG foci in primary DM1 patient myoblasts.
1.64
